Where these numbers come from: PubChem BioAssay

assay: viability loss with induced miR-34 in A549 – imaging, A549 dox-inducible miR-34, nuclei and caspase counts, primary screen (AID 1347080); conditions: A549 miR-34 inducible, Hoechst nuclei count, 48 h; stronger effect = lower value; cell number ratio, induced over uninduced
Mark yes for fold change under 0.9, no if at or over.

COMPOUND	CATEGORY
COc1ccccc1-c1cnn(CC(=O)Nc2cc(C)nn2C)c1	yes
CCCCCC1OC1C/C=C\C/C=C\C/C=C\CCCC(=O)O (stereo not drawn)	no
[Cl-].[Cl][Pt].[NH2-].[NH2-].c1ccncc1	no
C=C1/C(=C/C=C2/CCC[C@]3(C)[C@@H]([C@H](C)CCCC(C)C)CC[C@@H]23)C[C@@H](O)C[C@@H]1O	yes
CCCCCCCCCCCCCCCCCCOC[C@@H](O)COP(=O)([O-])OCC[N+](C)(C)C	no
NC(=O)c1ccccc1	no
COc1cc(OC)c(C=CS(=O)(=O)Cc2ccc(OC)c(NCC(=O)O)c2)c(OC)c1	no
OCC1O[C@H](O)C(Cl)C(O)C1O (stereo partly drawn)	no
Nc1nc(SCc2ccc([N+](=O)[O-])cc2)c2ncn([C@@H]3O[C@H](CO)[C@H](O)C3O)c2n1 (stereo partly drawn)	no

---

assay: drug combination growth inhibition, ovarian cancer – cell-based, oncology-focused library, rucaparib conditional, profiling panel (AID 1508598); conditions: patient-derived ovarian cancer cells, CellTiter-Glo viability, 144 h; at 0.0781 µM; OCI-P5x cells; with rucaparib 20 µM; stronger effect = lower value; 100% = cells with rucaparib alone

ITEM SMILES	UNITS SYMBOL	viability
CO[C@H]1C[C@@H]2CC[C@@H](C)[C@@](O)(O2)C(=O)C(=O)N2CCCC[C@H]2C(=O)O[C@H]([C@@H](C)C[C@@H]2CC[C@@H](OCCO)[C@H](OC)C2)CC(=O)[C@H](C)/C=C(\C)[C@H](O)[C@@H](OC)C(=O)[C@H](C)C[C@H](C)/C=C/C=C/C=C/1C	%	86.3
C[C@]12C=CC(=O)C=C1CC[C@@H]1[C@H]2C(=O)C[C@@]2(C)[C@H]1CC[C@@]2(O)C(=O)CO	%	85
COc1cc([C@H]2c3cc4c(cc3[C@@H](O[C@@H]3O[C@@H]5CO[C@@H](C)O[C@H]5[C@H](O)[C@@H]3O)[C@H]3COC(=O)[C@H]23)OCO4)cc(OC)c1O	%	99.3
COc1cc([C@H]2c3cc4c(cc3[C@@H](O[C@@H]3O[C@@H]5CO[C@@H](c6cccs6)O[C@H]5[C@H](O)[C@H]3O)[C@H]3COC(=O)[C@H]23)OCO4)cc(OC)c1O	%	87.9
CC[C@]1(O)C[C@@H]2CN(CCc3c([nH]c4ccccc34)[C@@](C(=O)OC)(c3cc4c(cc3OC)N(C=O)[C@H]3[C@@](O)(C(=O)OC)[C@H](OC(C)=O)[C@]5(CC)C=CCN6CC[C@@]43[C@@H]65)C2)C1	%	49.3
COc1cc(Br)c(Nc2nc(-c3c(C)nc4ncccn34)cs2)c(Br)c1	%	101
CC(=O)OCC(=O)[C@]1(O)[C@H](C)C[C@H]2[C@@H]3CCC4=CC(=O)C=C[C@]4(C)[C@]3(F)[C@H](O)C[C@@]21C	%	104
C[C@]12CC[C@H]3c4ccc(O)cc4CC[C@H]3[C@@H]1CCC2=O	%	96.1
C[C@@]1(c2nc3c(C(N)=O)cccc3[nH]2)CCCN1	%	91.6
Nc1ncn([C@@H]2O[C@H](CO)[C@@H](O)[C@@H]2O)c(=O)n1	%	110
